Tested on: THRa homodimer (NR concentration 90 nM)
assayInfo: PBM binding z-score (relative to random genomic background probes); higher = stronger binding; sequences stand for … in GC…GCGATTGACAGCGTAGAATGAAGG
testReadout: PBM binding z-score

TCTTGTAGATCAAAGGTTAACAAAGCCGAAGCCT : -0.41
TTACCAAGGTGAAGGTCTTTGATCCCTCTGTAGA : 0.592

What value of measured PBM binding z-score is listed for `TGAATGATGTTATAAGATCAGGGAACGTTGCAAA` ?
-0.281

Also `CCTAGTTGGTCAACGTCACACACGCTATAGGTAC` ?
0.632

Also `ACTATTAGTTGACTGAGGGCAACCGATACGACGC` ?
1.06

Also `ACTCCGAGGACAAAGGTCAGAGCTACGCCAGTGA` ?
2.29

----------
Tested on: RXRa DBDmut IVT, anti-RXR (DBD mutation: RXRa K156A/R161A, NR concentration 90 nM)
assayInfo: PBM binding z-score (relative to random genomic background probes); higher = stronger binding; sequences stand for … in GC…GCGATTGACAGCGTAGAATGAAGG
Entry flag: Condition met if PBM binding z-score reaches 0.3; Condition not met if it does not.

Would you please look over these solved cases?
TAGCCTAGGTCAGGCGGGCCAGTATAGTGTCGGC : Condition not met
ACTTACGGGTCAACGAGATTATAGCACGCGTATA : Condition met
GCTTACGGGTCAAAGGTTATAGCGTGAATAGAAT : Condition met
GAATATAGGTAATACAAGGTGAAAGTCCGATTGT : Condition met

Exam item: decide whether the reported PBM binding z-score for `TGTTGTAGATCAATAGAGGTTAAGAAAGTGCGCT` is at least 0.3.
Condition not met

----------
Collected PBM binding z-score values appear next to each entry.
Test system: PPARg:RXRa 270nM:90nM, anti-RXR (NR concentration 270 nM, RXRa partner concentration 90 nM)
assayInfo: PBM binding z-score (relative to random genomic background probes); higher = stronger binding; sequences stand for … in GC…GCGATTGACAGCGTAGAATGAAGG

Reference set (3 entries):
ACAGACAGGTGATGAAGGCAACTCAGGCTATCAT : -0.331
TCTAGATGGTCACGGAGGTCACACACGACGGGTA : 4.36
ACAGACGGGTGAGTGAAGGTAACTCAGCTGGACG : -0.249

What value of measured PBM binding z-score is listed for `CGTCCAAGGTCATAGTAGGTCAGTGAAGACAGAT` ?
5.42

Also `TCTTGTAGATCAACAGGAGGTTATGAAAGATCGA` ?
1.25

Also `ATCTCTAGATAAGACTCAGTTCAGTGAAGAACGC` ?
-0.337

----------
Tested on: LXRa homodimer (NR concentration 270 nM)
assayInfo: PBM binding z-score (relative to random genomic background probes); higher = stronger binding; sequences stand for … in GC…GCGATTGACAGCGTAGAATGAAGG
Entry flag: Criterion met if PBM binding z-score reaches 0.2; Criterion not met if it does not.

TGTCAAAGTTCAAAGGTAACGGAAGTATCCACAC : Criterion met
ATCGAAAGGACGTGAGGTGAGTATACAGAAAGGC : Criterion not met
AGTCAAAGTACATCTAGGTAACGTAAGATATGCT : Criterion not met
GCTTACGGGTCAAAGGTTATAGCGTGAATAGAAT : Criterion met
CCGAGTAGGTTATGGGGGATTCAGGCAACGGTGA : Criterion met
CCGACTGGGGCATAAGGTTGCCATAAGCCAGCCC : Criterion not met
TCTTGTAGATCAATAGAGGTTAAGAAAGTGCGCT : Criterion met
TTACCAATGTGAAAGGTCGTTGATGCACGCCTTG : Criterion met

Exam item: decide whether the reported PBM binding z-score for `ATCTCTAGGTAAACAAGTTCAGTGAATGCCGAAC` is at least 0.2.
Criterion met

Also `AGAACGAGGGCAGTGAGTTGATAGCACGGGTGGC` ?
Criterion not met

Also `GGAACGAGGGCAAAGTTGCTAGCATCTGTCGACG` ?
Criterion not met

----------
Collected PBM binding z-score values appear next to each entry.
Test system: PPARg:RXRa (NR concentration 180 nM, RXRa partner concentration 90 nM)
assayInfo: PBM binding z-score (relative to random genomic background probes); higher = stronger binding; sequences stand for … in GC…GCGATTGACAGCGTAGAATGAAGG
Just the number, please, no unit after it.

Reference set (3 entries):
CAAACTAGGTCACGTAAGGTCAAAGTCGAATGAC : 10.1
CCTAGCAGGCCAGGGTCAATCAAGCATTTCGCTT : 0.925
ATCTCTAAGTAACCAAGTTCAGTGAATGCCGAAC : -0.15

What value of measured PBM binding z-score is listed for `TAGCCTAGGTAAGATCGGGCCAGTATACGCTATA` ?
0.0812

Also `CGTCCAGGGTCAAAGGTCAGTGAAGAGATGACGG` ?
10.5

Also `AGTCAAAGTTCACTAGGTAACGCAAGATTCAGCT` ?
7.22

----------
System: RXRa homodimer (NR concentration 180 nM)
assayInfo: PBM binding z-score (relative to random genomic background probes); higher = stronger binding; sequences stand for … in GC…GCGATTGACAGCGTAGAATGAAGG
Entry flag: met if PBM binding z-score reaches 3; not met if it does not.

Exam item: decide whether the reported PBM binding z-score for `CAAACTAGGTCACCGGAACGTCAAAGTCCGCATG` is at least 3.
met

Also `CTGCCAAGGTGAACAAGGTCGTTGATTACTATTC` ?
not met

Also `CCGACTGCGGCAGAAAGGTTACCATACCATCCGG` ?
not met

----------
System: RARb homodimer (NR concentration 270 nM)
assayInfo: PBM binding z-score (relative to random genomic background probes); higher = stronger binding; sequences stand for … in GC…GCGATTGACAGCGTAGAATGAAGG
Entry flag: rule met if PBM binding z-score reaches 1; rule not met if it does not.

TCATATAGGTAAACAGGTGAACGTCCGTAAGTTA : rule not met
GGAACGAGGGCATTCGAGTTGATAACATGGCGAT : rule not met
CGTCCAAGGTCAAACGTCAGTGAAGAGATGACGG : rule met
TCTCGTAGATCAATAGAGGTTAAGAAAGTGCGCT : rule not met
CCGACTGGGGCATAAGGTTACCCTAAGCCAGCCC : rule met

Please find the next sequence below.
Exam item: decide whether the reported PBM binding z-score for `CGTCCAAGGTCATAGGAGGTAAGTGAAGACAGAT` is at least 1.
rule met

----------
Test system: LXRa homodimer (NR concentration 270 nM)
assayInfo: PBM binding z-score (relative to random genomic background probes); higher = stronger binding; sequences stand for … in GC…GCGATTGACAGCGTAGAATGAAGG
Entry flag: Fulfilled if PBM binding z-score reaches -0.2; Not fulfilled if it does not.

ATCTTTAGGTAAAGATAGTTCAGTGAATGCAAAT : Fulfilled
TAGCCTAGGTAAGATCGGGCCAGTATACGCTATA : Not fulfilled
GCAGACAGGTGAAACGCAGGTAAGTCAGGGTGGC : Not fulfilled

Exam item: decide whether the reported PBM binding z-score for `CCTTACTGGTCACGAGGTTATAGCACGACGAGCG` is at least -0.2.
Fulfilled

Also `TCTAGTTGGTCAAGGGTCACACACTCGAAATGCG` ?
Fulfilled

Also `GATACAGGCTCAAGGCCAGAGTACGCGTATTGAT` ?
Not fulfilled

Also `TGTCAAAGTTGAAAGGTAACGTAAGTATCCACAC` ?
Not fulfilled

Also `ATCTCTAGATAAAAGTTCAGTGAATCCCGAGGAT` ?
Fulfilled

Also `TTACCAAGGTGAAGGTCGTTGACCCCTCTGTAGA` ?
Fulfilled

----------
System: PPARg:RXRa IVT, anti-PPARg (NR concentration 270 nM, RXRa partner concentration 90 nM)
assayInfo: PBM binding z-score (relative to random genomic background probes); higher = stronger binding; sequences stand for … in GC…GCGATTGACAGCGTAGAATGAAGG
testReadout: PBM binding z-score
Just the number, please, no unit after it.

Reference set (2 entries):
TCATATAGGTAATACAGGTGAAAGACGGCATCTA : 3.37
ACAGAAAGGTGAGTGAAGGTAACTCAGCTGGACG : 1.91

What PBM binding z-score appears in the records for this sequence with PPARg:RXRa IVT, anti-PPARg (NR concentration 270 nM, RXRa partner concentration 90 nM)? `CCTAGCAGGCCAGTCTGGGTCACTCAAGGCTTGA`
2.62

Also `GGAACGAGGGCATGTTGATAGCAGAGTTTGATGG` ?
1.79

----------
Tested on: RXRa homodimer (NR concentration 180 nM)
assayInfo: PBM binding z-score (relative to random genomic background probes); higher = stronger binding; sequences stand for … in GC…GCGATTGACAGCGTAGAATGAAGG
Classify on PBM binding z-score using lower band: < 0.7; central band: ≥ 0.7 and < 4; upper band: ≥ 4

Would you please look over these solved cases?
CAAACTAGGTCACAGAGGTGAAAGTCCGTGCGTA : upper band
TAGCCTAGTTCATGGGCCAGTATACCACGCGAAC : central band
CCTACTGGGGCAAAGGTTACCATACTCAGTACGA : central band
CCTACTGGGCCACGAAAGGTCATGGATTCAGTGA : upper band
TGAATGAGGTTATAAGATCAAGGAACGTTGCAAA : central band
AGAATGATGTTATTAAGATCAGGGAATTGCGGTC : lower band
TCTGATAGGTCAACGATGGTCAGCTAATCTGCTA : upper band
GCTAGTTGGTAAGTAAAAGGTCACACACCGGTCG : upper band

Please let me know in which category the item `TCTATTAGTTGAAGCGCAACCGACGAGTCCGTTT` belongs.
lower band

Also `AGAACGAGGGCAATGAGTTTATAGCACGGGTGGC` ?
central band

Also `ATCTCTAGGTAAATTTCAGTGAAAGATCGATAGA` ?
lower band

Also `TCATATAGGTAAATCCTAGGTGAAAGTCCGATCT` ?
central band

Measured values drawn from the supplement of paper PMC6555819 for this set.
